# MEASURED_TARGET: CCR4 (Homo sapiens)
# Construct: host or cells: CHO-K1
# Sequence (P51679 1-360): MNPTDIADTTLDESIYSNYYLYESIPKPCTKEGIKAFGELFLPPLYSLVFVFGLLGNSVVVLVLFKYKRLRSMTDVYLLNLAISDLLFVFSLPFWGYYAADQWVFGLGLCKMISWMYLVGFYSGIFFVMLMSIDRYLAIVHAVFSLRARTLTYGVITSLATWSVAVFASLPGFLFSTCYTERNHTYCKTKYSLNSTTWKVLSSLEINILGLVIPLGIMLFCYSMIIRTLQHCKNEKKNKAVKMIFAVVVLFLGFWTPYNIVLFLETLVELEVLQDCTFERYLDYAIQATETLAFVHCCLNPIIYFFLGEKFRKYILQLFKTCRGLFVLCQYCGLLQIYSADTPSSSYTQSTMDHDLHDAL
# ASSAY_NOTES: PathHunter eXpress CCR4 CHO-K1 β-Arrestin GPCR Assay, agonist format
# Format: cell-based
# ASSAY_CONTEXT: high concentration, 0.1 uM
# Protocol: The aim of the present experiment was to analyze if if these peptides are functional using a Discoverx Assay, the Beta-Arrestin recruitment assay, to identify agonism or antagonism in the selected peptides. Standard protocols used: • PathHunter® eXpress CCR4 CHO-K1 β-Arrestin GPCR Assay. 100 dp (1×96-well) The experiment was carried using the manufacturer instructions. The concentration was increased to test for response at high concentration.
QUANTITY_MEASURED: Raw Data
Give only the figure.

# annotated cases, reported Raw Data shown
SEQUENCE_CODE: ACQLTCLTPARQPGCA [24-14-00-N001, bicyclic peptide ligand, TATA scaffold, from CCR4 cell-based selection]
Raw Data: 12143
//
SEQUENCE_CODE: ACQTLCNTAEDIRCA [24-16-00-N001, bicyclic peptide ligand, TBMB scaffold, from CCR4 cell-based selection]
Raw Data: 13482
//
SEQUENCE_CODE: ACLNGCRNTNSQCA [24-11-00-N001, bicyclic peptide ligand, TATA scaffold, from CCR4 cell-based selection]
Raw Data: 11394
//
SEQUENCE_CODE: ACLSCARHGNQCA [24-12-00-N001, bicyclic peptide ligand, TATA scaffold, from CCR4 cell-based selection]
Raw Data: 13063
//
SEQUENCE_CODE: ACRAVHSLRCLTTCA [24-17-00-N001, bicyclic peptide ligand, TATA scaffold, from CCR4 cell-based selection]
Raw Data: 14856

Q. If you can, please state the reported Raw Data value of ACQLTCLPPPRQPGCA [24-15-00-N001, bicyclic peptide ligand, TATA scaffold, from CCR4 cell-based selection] .
A. 13265

Q. If you can, please state the reported Raw Data value of ACPLMSSVNCTAGCA [24-13-00-N001, bicyclic peptide ligand, TBMB scaffold, from CCR4 cell-based selection] .
A. 13168
